These measurements were taken from the RNAGym collection of RNA variant scans (doi:10.1093/molbev/msab373).

For each of the variants below, state its reverse-splicing fitness.
B1: Azoarcus group I ribozyme (parent)
chain: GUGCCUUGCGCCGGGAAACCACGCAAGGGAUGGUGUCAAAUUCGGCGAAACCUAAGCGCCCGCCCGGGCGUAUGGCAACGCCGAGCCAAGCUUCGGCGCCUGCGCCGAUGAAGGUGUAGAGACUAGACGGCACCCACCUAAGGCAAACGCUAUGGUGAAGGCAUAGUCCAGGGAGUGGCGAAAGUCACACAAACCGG

variants of: B1; assay: reverse-splicing fitness (ratio to wild type); higher = more active; in vitro selection; Mg2+ level not given
The reply should be a number, written without any unit.

Task: Bench note: what reverse-splicing fitness did C82G A111U A145C C150A U176G show?
Result: 0.00844

Task: Bench note: what reverse-splicing fitness did C82U A111C A120C A145U C150G C169U U176G show?
Result: 0.00581

Task: Bench note: what reverse-splicing fitness did C82U A120C C150G U176A show?
Result: 0.00635

Task: Bench note: what reverse-splicing fitness did C82G A111C A120C A145U C169G show?
Result: 0.00877

Task: Bench note: what reverse-splicing fitness did A111U A120C A145C C150G C169U U176G show?
Result: 0.00478

Task: Bench note: what reverse-splicing fitness did A120C A145C C169U U176C show?
Result: 0.177

Task: Bench note: what reverse-splicing fitness did C82U A111U A120G A145G C169A U176A show?
Result: 0.0205

Task: Bench note: what reverse-splicing fitness did C82U A111G A120U A145C C150U C169A show?
Result: 0.00187

Task: Bench note: what reverse-splicing fitness did C82G A111U A145C C150G C169A U176G show?
Result: 0.00713

Task: Bench note: what reverse-splicing fitness did C82G A111U A120G C150A C169G U176G show?
Result: 0.00607

Task: Bench note: what reverse-splicing fitness did C82U A111U A120U A145G C150G show?
Result: 0.00817

Task: Bench note: what reverse-splicing fitness did A111C A145C C150G C169G show?
Result: 0.0102

Task: Bench note: what reverse-splicing fitness did C82G A111U A145G C150A C169U U176C show?
Result: 0.0149

Task: Bench note: what reverse-splicing fitness did C82G A111U A120U C150A C169A show?
Result: 0.0047

Task: Bench note: what reverse-splicing fitness did A111C A120U C150A C169G U176G show?
Result: 0.00245

Task: Bench note: what reverse-splicing fitness did C82A A111C C150G C169A U176A show?
Result: 0.00958

Task: Bench note: what reverse-splicing fitness did C82A A111C A120C A145G C150G C169A U176C show?
Result: 0.0121

Task: Bench note: what reverse-splicing fitness did C82A A111U A120G C150G U176C show?
Result: 0.00922

Task: Bench note: what reverse-splicing fitness did A120G A145C C150G C169G show?
Result: 0.114

Task: Bench note: what reverse-splicing fitness did C82G A111C A120G A145C U176C show?
Result: 0.0166

Task: Bench note: what reverse-splicing fitness did A120U A145C C150U C169A show?
Result: 0.00515

Task: Bench note: what reverse-splicing fitness did C82U A120G A145C C150U C169G U176C show?
Result: 0.0111
